// data source = patent US20150004189A1

- TEST_SYSTEM: T1, HLA-DP molecule DPB1*0401 (human)
- T1 chain 1: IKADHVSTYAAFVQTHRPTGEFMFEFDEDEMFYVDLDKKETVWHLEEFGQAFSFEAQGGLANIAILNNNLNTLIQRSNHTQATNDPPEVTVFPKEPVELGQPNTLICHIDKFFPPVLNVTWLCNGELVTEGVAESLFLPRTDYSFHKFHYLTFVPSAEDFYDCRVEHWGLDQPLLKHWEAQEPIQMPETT
- T1 chain 2: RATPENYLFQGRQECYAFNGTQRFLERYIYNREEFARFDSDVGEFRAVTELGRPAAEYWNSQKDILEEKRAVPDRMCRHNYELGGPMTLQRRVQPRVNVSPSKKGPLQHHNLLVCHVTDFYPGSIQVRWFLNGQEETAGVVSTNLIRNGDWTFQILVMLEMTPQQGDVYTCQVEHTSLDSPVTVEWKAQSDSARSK
- ASSAY_OVERVIEW: inhibition of radiolabeled peptide binding to purified HLA-DP
So basically, if IC50 comes in under 20 µM it's 1 (yes), and if it's 20 µM or more it's 0 (no).

Example results:
DAYVATLTEALRVIA [Lol p 5 1 peptide, position 151, DAYVATLTEALRVIA (Peptide ID 3324.1167)]
1 (yes)
NDKFTVFEGAFNKAI [Pha a 5 peptide, position 181, NDKFTVFEGAFNKAI (Peptide ID 3324.1442)]
1 (yes)
DINVGFKAAVAAAAG [Poa p 5 peptide, position 56, DINVGFKAAVAAAAG (Peptide ID 3324.1571)]
0 (no)
ATPEAKFDSFVAAFT [Poa p 5 peptide, position 121, ATPEAKFD5FVAAFT as printed in Table 8 (Peptide ID 3324.1570)]
1 (yes)

Below: the item to evaluate.
# input Is the reported IC50 for FKAAVAAAAGAPPAD [Poa p 5 peptide, position 61, FKAAVAAAAGAPPAD (Peptide ID 3324.1575)] strictly below 20 µM?
# output 0 (no)
